Target: CR2 (Homo sapiens, UniProt P20023)
Construct: CR2 is isolated from Raji cells (ATTC CCL 86); endogenous in cells; host or cells: Raji cells (ATCC CCL 86)
Sequence (P20023 21-1033): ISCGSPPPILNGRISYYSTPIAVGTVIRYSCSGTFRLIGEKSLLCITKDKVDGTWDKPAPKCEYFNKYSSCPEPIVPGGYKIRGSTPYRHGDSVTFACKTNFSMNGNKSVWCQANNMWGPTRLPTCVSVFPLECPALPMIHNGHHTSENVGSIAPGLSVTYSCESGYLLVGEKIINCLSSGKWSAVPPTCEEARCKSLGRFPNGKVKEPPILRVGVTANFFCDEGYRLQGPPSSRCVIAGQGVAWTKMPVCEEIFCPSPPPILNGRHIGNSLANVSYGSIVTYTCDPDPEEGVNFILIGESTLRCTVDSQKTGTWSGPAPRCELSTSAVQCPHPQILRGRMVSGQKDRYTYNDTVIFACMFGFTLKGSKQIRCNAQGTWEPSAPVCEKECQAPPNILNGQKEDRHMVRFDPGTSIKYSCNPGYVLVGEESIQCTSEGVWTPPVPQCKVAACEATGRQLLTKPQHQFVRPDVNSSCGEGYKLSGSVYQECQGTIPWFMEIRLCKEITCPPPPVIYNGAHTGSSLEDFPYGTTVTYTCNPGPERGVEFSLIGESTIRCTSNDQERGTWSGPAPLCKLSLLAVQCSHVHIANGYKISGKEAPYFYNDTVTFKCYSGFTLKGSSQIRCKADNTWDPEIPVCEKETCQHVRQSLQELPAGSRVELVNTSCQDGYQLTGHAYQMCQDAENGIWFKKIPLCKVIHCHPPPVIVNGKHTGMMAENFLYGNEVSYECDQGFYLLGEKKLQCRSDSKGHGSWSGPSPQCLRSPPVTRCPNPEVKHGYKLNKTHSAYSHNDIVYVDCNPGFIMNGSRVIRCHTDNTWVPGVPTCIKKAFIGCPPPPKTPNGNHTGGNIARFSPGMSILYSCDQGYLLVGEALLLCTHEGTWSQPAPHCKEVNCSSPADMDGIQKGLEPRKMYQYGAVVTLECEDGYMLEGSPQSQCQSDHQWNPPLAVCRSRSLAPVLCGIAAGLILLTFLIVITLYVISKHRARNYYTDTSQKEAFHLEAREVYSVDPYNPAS
Method: Inhibition of CR2 binding to rIFNα by competing polypeptides
Condition Context: competing polypeptide at 100ug/ml; rIFNα solid phase, CR2 liquid phase
Ends that are not written are not given here.
Outcome Measure: inhibition at 100 µg/mL (%)

# Substance, Outcome Measure, Unit Name, Numeric Result
data = [
    ("QLNDLEACV [p2, QLNDLEACV]", "inhibition at 100 µg/mL", "%", 48),
    ("SPGRGD [p10, SPGRGD]", "inhibition at 100 µg/mL", "%", 0),
    ("QLNDMEACV [p6, QLNDMEACV]", "inhibition at 100 µg/mL", "%", 0),
    ("QLYNVEATS [p7, QLYNVEATS]", "inhibition at 100 µg/mL", "%", 50),
    ("QLNNLEACV [p4, QLNNLEACV]", "inhibition at 100 µg/mL", "%", 45),
]

Data provenance: patent US5310729A
